# Test system: intestinal alkaline phosphatase [Mus musculus]
# MEASUREMENT PROTOCOL: mouse intestinal phosphatase enzyme activation – biochemical, luminescence, single concentration, confirmation (AID 434970)
# TEST PARAMETERS: purified mouse IAP, CDP-Star luminescence, 30 min, at 10 µM; measured here: IAP activation factor, stronger effect = higher value
The whole screen tested about 11,000 compounds, of which about 310 (2.8%) were called active. This excerpt belongs to a sample that is enriched for actives.
Parameter activation factor: see the listing below.

Sample answers from the record:
{"columns": ["MOLECULE", "TARGET UNDER TEST", "activation factor"],
 "data": [
  ["CC(C)COc1ccc(CNC(=S)NCc2ccccc2)cc1", "intestinal alkaline phosphatase [Mus musculus]", 1.12],
  ["COc1ccc(Cc2nnc(NC(=O)C3CCCO3)s2)cc1OC (configuration not stated)", "intestinal alkaline phosphatase [Mus musculus]", 1.01],
  ["COc1ccc(C(=O)Nc2ccccc2C(=O)N/N=C/c2cccc3ccccc23)cc1", "intestinal alkaline phosphatase [Mus musculus]", 1.02],
  ["O=C(c1ccc(S(=O)(=O)N2CCCCC2)cc1)N1CCCc2ccccc21", "intestinal alkaline phosphatase [Mus musculus]", 0.98]
]}

Inquiry: If you can, please state the reported activation factor value of `NC(=O)CSc1nnc(-c2ccncc2)n1CCc1ccccc1` .
Reply text: 1.05

Inquiry: If you can, please state the reported activation factor value of `CCn1c(=O)c(C(=O)NCCN2CCCCC2)c(O)c2ccccc21` .
Reply text: 0.851

Inquiry: If you can, please state the reported activation factor value of `O=C(NCCc1ccccc1)c1cc(-c2ccccc2)c(N2CCOCC2)s1` .
Reply text: 1.46

Inquiry: If you can, please state the reported activation factor value of `Cc1ccc(-c2csc(N)n2)s1` .
Reply text: 0.219

###

# System: intestinal alkaline phosphatase [Mus musculus]
# MEASUREMENT PROTOCOL: mouse intestinal phosphatase enzyme activation – biochemical, luminescence, single concentration, confirmation (AID 434970)
# TEST PARAMETERS: purified mouse IAP, CDP-Star luminescence, 30 min, at 10 µM; measured here: IAP activation factor, stronger effect = higher value
The whole screen tested about 11,000 compounds, of which about 310 (2.8%) were called active. What follows is part of a selection rich in actives, with near analogues and random picks from the rest.
Rule: activation factor under 1 gives f, otherwise t.

Please review the following examples before continuing.
{"columns": ["COMPOUND", "CATEGORY LABEL"],
 "data": [
  ["O=C(Nc1c(-c2ccccc2)nc2sccn12)c1ccccc1", "f"],
  ["COc1ccccc1C(=O)Nc1cccc(SC)c1", "t"],
  ["[N-]=[N+]=CC(=O)CCCN1C(=O)c2ccccc2C1=O", "t"],
  ["C=CCC1[C@H](C)[C@H]2[C@@H]3CC[C@@H](C3)[C@H]2CN1S(=O)(=O)c1ccc(C)cc1 (some centres not stated)", "t"],
  ["O=C(CSc1ncn[nH]1)CSc1ncn[nH]1", "f"]
]}

# ---- query compound ----
Inquiry: Say whether `COC(=O)c1cccc(NC(=O)Nc2ccc(Cl)cc2)c1` shows activation factor of 1 or more.
Reply text: t

###

Parameter activity change, negative = activation: see the listing below.
# Tested on: intestinal alkaline phosphatase [Mus musculus]
# MEASUREMENT PROTOCOL: mouse intestinal phosphatase enzyme activation – biochemical, luminescence, single concentration, confirmation (AID 434970)
# TEST PARAMETERS: purified mouse IAP, CDP-Star luminescence, 30 min, at 10 µM; stronger effect = lower value
Hit rate of the full screen: of about 11,000 compounds, about 310 (2.8%) were called active. The sample holds actives, similar compounds and a random draw of the others, so the mix is not that of the screen.

{"columns": ["COMPOUND", "TARGET UNDER TEST", "OBSERVED PROPERTY", "RESULT"],
 "data": [
  ["Cc1ccccc1-c1cc(C(=O)NCc2cccc(Br)c2)n(CC2CC(c3cccnc3)=NO2)n1 (stereo not given)", "intestinal alkaline phosphatase [Mus musculus]", "activity change, negative = activation", "-55.5% (inactive)"],
  ["CCC(NC(=S)NCc1ccc(F)cc1)c1ccc(C(C)C)cc1 (stereo not given)", "intestinal alkaline phosphatase [Mus musculus]", "activity change, negative = activation", "-38.5% (inactive)"],
  ["COc1ccccc1-c1nnc(SCCN2CCOCC2)n1-c1ccc(C)cc1", "intestinal alkaline phosphatase [Mus musculus]", "activity change, negative = activation", "5.3% (inactive)"],
  ["CCn1cc(CN2CCC(C(=O)Nc3cccc(-c4cccc(Cl)c4)c3)CC2)cn1", "intestinal alkaline phosphatase [Mus musculus]", "activity change, negative = activation", "-329% (active)"],
  ["COc1cccc(-c2sc3cc(OC)c(OC)cc3c2-c2ccc(OCCN3CCCCC3)cc2)c1", "intestinal alkaline phosphatase [Mus musculus]", "activity change, negative = activation", "-0.55% (inactive)"]
]}

Inquiry: If you can, please state the reported activity change, negative = activation value of CC(Sc1nnc(-c2ccco2)o1)C(=O)Nc1ccc(OC(F)F)cc1 (stereo not given) .
Reply text: 10.7% (inactive)

Inquiry: If you can, please state the reported activity change, negative = activation value of `COC(=O)c1ccccc1NC(=O)CN(CCc1ccccc1)S(C)(=O)=O` .
Reply text: -3.75% (inactive)
